- measured target: endothelin receptor (Bos taurus)
- Construct: from tissue; host or cells: bovine cerebellar membrane fraction
- Sequence (P28088 27-441): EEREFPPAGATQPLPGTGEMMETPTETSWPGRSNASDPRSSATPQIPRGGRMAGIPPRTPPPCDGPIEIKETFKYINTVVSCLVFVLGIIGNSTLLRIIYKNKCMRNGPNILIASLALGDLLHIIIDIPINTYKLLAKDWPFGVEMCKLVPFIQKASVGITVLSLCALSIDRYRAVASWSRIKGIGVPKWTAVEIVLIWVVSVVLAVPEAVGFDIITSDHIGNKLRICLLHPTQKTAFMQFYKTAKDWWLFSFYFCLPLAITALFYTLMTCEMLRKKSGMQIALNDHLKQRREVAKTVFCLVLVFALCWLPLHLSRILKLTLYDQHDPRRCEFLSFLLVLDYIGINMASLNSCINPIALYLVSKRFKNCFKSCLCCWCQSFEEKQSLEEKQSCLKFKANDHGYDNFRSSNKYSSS
- test description: Endothelin receptor-antagonizing effect: 125I-endothelin-1 binding to bovine cerebellar tissue membrane fraction
pIC50: −log10 of the molar value. Bridge positions count the residues as written; N and C are the ends. Peptide text beside a SMILES is read from it.
Here, each record is paired with measured pIC50 data.

molecule: C[C@@H]1NC(=O)[C@H]([C@@H](C)O)NC(=O)CNC(=O)[C@H](Cc2c[nH]cn2)NC(=O)[C@H](Cc2c[nH]c3ccccc23)NC(=O)[C@H](CC(N)=O)NC(=O)CNC(=O)C[C@@H](C(=O)N[C@@H](Cc2c[nH]c3ccccc23)C(=O)N[C@@H](CC(N)=O)C(=O)N[C@@H](Cc2ccc(O)cc2)C(=O)N[C@@H](Cc2ccc(O)cc2)C(=O)N[C@@H](Cc2c[nH]c3ccccc23)C(=O)O)NC(=O)[C@@H]2CCCN2C1=O [Compound I-32] (GNWHGTAPDWNYYW-OH; lactam N-9)
pIC50: < 6.24
//
molecule: CC[C@H](C)[C@H](NC(=O)[C@H](Cc1c[nH]c2ccccc12)NC(=O)[C@@H]1CC(=O)NCC(=O)N[C@@H](CC(N)=O)C(=O)N[C@@H](Cc2c[nH]c3ccccc23)C(=O)N[C@@H](Cc2c[nH]cn2)C(=O)NCC(=O)N[C@@H]([C@@H](C)O)C(=O)N[C@@H](C)C(=O)N2CCC[C@H]2C(=O)N1)C(=O)N[C@H](C(=O)N[C@@H](Cc1c[nH]c2ccccc12)C(=O)O)[C@@H](C)CC [Compound I-27] (GNWHGTAPDWIIW-OH; lactam N-9)
pIC50: < 5.22
//
molecule: C[C@@H]1NC(=O)[C@H]([C@@H](C)O)NC(=O)CNC(=O)[C@H](Cc2c[nH]cn2)NC(=O)[C@H](Cc2c[nH]c3ccccc23)NC(=O)[C@H](CC(N)=O)NC(=O)CNC(=O)C[C@@H](C(=O)O)NC(=O)[C@@H]2CCCN2C1=O [Compound I-14] (GNWHGTAPD-OH; lactam N-9)
pIC50: < 6.00
